The reported measurements were obtained from PubChem BioAssay (NCI).

Tested on: MDA-MB-435 melanoma
Experiment: NCI-60 one-dose screen, 48 h (100 = growth as untreated, 0 = no growth, -100 = all killed)
Conditions: 10 µM unless noted
About 83,000 compounds went through this panel and 20% of them were active in at least one assay; those are over-represented in the sample as a whole.
PROPERTY NAME: growth (%)
Express it in %; write the number only.

Known growth results, listed for orientation:
MOLECULE | SYSTEM UNDER TEST | OUTPUT UNIT | growth
O=C1Nc2c(ccc(Cl)c2Cl)/C1=C/c1ccc([N+](=O)[O-])cc1 | MDA-MB-435 melanoma | % | 93
Fc1ccc(C2CC(c3cccc(Nc4ccncc4)c3)=NN2c2cc(Cl)cc(Cl)c2)cc1 (configuration not stated) | MDA-MB-435 melanoma | % | -22.5
CS(=O)(=O)c1ccc(-c2cc3c(oc2=O)-c2ccccc2OC3O)cc1 (configuration not stated) | MDA-MB-435 melanoma | % | 111
CCN(CC)CCCCCCNc1cc(OC)cc2cccnc12 | MDA-MB-435 melanoma | % | 17.8
O=C(NNc1nc(Cl)nc(N2CCN(C(c3ccccc3)c3ccccc3)CC2)n1)c1ccccc1 | MDA-MB-435 melanoma | % | 58.7

Input: Find the measured growth: item `CCN(CC)CCOC(COc1cc(C)cc(C)c1)COc1cc(C)cc(C)c1` , target or system MDA-MB-435 melanoma.
Output: 19.5

Input: Recorded growth for `COc1ccc(/C(=C\c2ccccc2)C(=O)O)cc1OC` with MDA-MB-435 melanoma, please?
Output: 106

Input: Observed growth on MDA-MB-435 melanoma for `O=[N+]([O-])c1cccc(-c2nc(-c3ccc(Cl)cc3Cl)cn2-c2ccccc2)c1` , please.
Output: -39.5

Input: Notebook: pull reported growth for MDA-MB-435 melanoma, entry `O=C1NC(=S)NC(=O)C1=Cc1cccc(C=C2C(=O)NC(=S)NC2=O)c1`
Output: 108

* * *

Test system: U251 CNS
Assay: NCI-60 one-dose screen, 48 h
Conditions: 10 µM unless noted
Method: Growth inhibition of the U251 human tumor cell line is measured as a screen for anti-cancer activity. Cells are grown in 96 well plates and exposed to the test compound for 48 hours. Compounds are tested at a single concentration, which is 10^-5 M for most compounds. The reported endpoint is percent growth (GI% or GIPRCNT), where numbers from 0 - 100% represent growth inhibition, and numbers from -100% - 0 represent cell death. For example, a value of 40 represents 60% growth inhibition. […]
This is part of a sample that, as a whole, favours compounds with a hit. Of some 83,000 tested, about 20% had one in any assay. The source made the active and inactive calls. The calls were made as follows: active = growth percent below 10; inactive = the rest.
Log the outcome using a class from active, inactive

Reference set (6 entries):
COMPOUND | LABEL
COc1cc2oc(-c3cccc(C(=O)Nc4ccc(Cl)cc4)c3)cc(=O)c2c(OC)c1OC | inactive
Cc1cc(C)n(Nc2nc3ccccc3[nH]c2=O)c(=O)c1C#N | inactive
C=C1C(=O)O[C@H]2[C@H]1CC/C(COC(=O)/C=C/c1c[nH]c3ccccc13)=C\CC[C@@]1(C)O[C@@H]21 | active
COC(=O)N[C@H]1CCc2cc(OC)c(OC)c(OC)c2-c2ccc(SC)c(=O)cc21 | inactive
Cc1ccc(-c2c(Br)c(OC(=O)CO[C@@H]3C[C@H](C)CC[C@H]3C(C)C)c(-c3ccc(C)cc3C)c(Br)c2OC(=O)CO[C@H]2C[C@@H](C)CC[C@@H]2C(C)C)c(C)c1 | inactive
COC(=O)C1=C(C(=O)ONCCN(C)C)C2C=CC1(C(Cc1ccccc1)Nc1ccc(F)cc1)O2 (configuration not stated) | inactive

Please examine the following record next.
Input: Per the assay record, what outcome was assigned to `C=C(C)[C@@H]1CC[C@]2(C(=O)NCCCN(CCC#N)CCC#N)CC[C@]3(C)[C@H](CC[C@@H]4[C@@]5(C)CCC(=O)C(C)(C)[C@@H]5CC[C@]43C)[C@@H]12` ?
Output: inactive

* * *

Tested on: MOLT-4 leukemia
Test: NCI-60 one-dose screen, 48 h
Settings: 10 µM unless noted
Experimental: Growth inhibition of the MOLT-4 human tumor cell line is measured as a screen for anti-cancer activity. Cells are grown in 96 well plates and exposed to the test compound for 48 hours. Compounds are tested at a single concentration, which is 10^-5 M for most compounds. The reported endpoint is percent growth (GI% or GIPRCNT), where numbers from 0 - 100% represent growth inhibition, and numbers from -100% - 0 represent cell death. For example, a value of 40 represents 60% growth inhibition. […]
The panel holds about 83,000 compounds, 20% with a hit somewhere; the sample as a whole holds those more often. Active and inactive are the calls of the source. Rule for the calls: active = growth percent below 10; inactive = the rest.
Respond only with the outcome that fits, drawn from active, inactive

COMPOUND | LABEL
CN1CCN(c2cnc(C(=O)Nc3cc(F)cc4cccnc34)cn2)CC1 | inactive
Clc1ccc(N2N=C(c3cccc(Nc4ccncc4)c3)CC2c2ccc3c(c2)OCO3)cc1 (stereo not given) | active
COc1ccc(-c2nc(SCC(C)C)nc(N/N=C(/C)c3ccc(OC)c(OC)c3)c2C#N)cc1 | inactive
COc1cccc(CCC(=O)c2cc3c(N)c(C(=O)Nc4cccc(Cl)c4C)sc3nc2C)c1 | inactive

Now look at this one.
Input: For COC(=O)C1=C(C(=O)ONCCN(C)C)C2C=CC1(C(Cc1ccccc1)Nc1ccc(F)cc1)O2 (stereo not given) , which call appears in the assay record?
Output: inactive

* * *

System: SNB-75 CNS
Assay: NCI-60 one-dose screen, 48 h
Settings: 10 µM unless noted
Description: Growth inhibition of the SNB-75 human tumor cell line is measured as a screen for anti-cancer activity. Cells are grown in 96 well plates and exposed to the test compound for 48 hours. Compounds are tested at a single concentration, which is 10^-5 M for most compounds. The reported endpoint is percent growth (GI% or GIPRCNT), where numbers from 0 - 100% represent growth inhibition, and numbers from -100% - 0 represent cell death. For example, a value of 40 represents 60% growth inhibition. […]
This is part of a sample that, as a whole, favours compounds with a hit. Of some 83,000 tested, about 20% had one in any assay. Activity calls are given as the source filed them. The calls were made as follows: active = growth percent below 10; inactive = the rest.
Permitted responses: label 1 (active), label 0 (inactive)

Some entries whose results are on file:
MOLECULE | LABEL
COc1cc(NCC(O)CN(CC(C)C)C2CCCC2)c2ncccc2c1 (centres undefined) | label 0
O=S(=O)(NCCNc1nccc(-c2c(-c3cccc(F)c3)nc3occn23)n1)c1cccc2ccccc12 | label 0
CCCCCCCCCCCCCCCC(=O)OC[C@@]1(O)C[C@@]23CC[C@@H]4C(C)(C)CCC[C@@]4(C)[C@@H]2CC[C@H]1C3 | label 0

Input: Returns: the outcome recorded for `CC[C@H](C)[C@@H]1NC(=O)[C@H](Cc2ccc(O)cc2)N(C)C(=O)[C@H](Cc2ccccc2)NC(=O)CN(C)C(=O)[C@@H]2CCCN2C(=O)[C@@H](Cc2ccccc2)N(C)C(=O)[C@H](CC(C)C)NC1=O` in this assay.
Output: label 1

Input: Called result for `O=S(=O)(c1ccccc1)N1CCCc2ccccc21`
Output: label 0

Input: Call for entry `CCCCN(CCCC)CCc1c(C)cc(C)c(CCN(CCCC)CCCC)c1O` :
Output: label 0

Input: Test call for this molecule, please: `COc1ccc(-c2ncc(-c3ccccc3)[nH]2)cc1OC`
Output: label 0

Input: Dear all, I need the recorded test outcome for `COc1ccc(C(=O)c2cc3c(N)c(C(=O)Nc4ccc(Br)cc4)sc3nc2C)cc1` , thank you.
Output: label 1

Input: Would you mind telling me which call this test gave `COc1ccc2c(Nc3ccc(NS(C)(=O)=O)cc3)c3ccccc3nc2c1` ?
Output: label 1

* * *

Recorded growth values for a group of compounds are listed next.
Tested on: MCF7 breast
Assay: NCI-60 one-dose screen, 48 h (100 = growth as untreated, 0 = no growth, -100 = all killed)
Conditions: 10 µM unless noted
The panel holds about 83,000 compounds, 20% with a hit somewhere; the sample as a whole holds those more often.
Enter your answer as a number in %; do not include the unit.

Worked set:
STRUCTURE NOTATION | growth [%]
CN1C(=O)N(C)[C@H]2NC(NN)=N[C@H]21 | 97.8
CNC(=O)Nc1ccc(-c2nc(N3CCOCC3)nc3c2cnn3C2CCOCC2)cc1 | 1.06
CC1CCN(C(=O)OCc2nc3nc(Cl)nc(N4CCOCC4)c3[nH]2)CC1 | -18.9

Input: Fill in the blank: the reported growth of `COc1cc2oc(-c3cccc(C(=O)Nc4ccc(Cl)cc4)c3)cc(=O)c2c(OC)c1OC` is ____.
Output: 17.2

Input: Give its growth value. Item: `CN1CCN(c2ccc(NC3=C(Cl)C(=O)c4ncccc4C3=O)cc2C#N)CC1`
Output: -59.9

* * *

Test system: SK-MEL-28 melanoma
Experiment: NCI-60 one-dose screen, 48 h (100 = growth as untreated, 0 = no growth, -100 = all killed)
Conditions: 10 µM unless noted
About 83,000 compounds went through this panel and 20% of them were active in at least one assay; those are over-represented in the sample as a whole.
Would you please tag the item 1 when its growth is 50% or above, and -1 when it is below?

For orientation, consider the following solved cases.
COMPOUND | SYSTEM UNDER TEST | LABEL
Cc1cc(C(=O)Nc2ncnc3nc[nH]c23)no1 | SK-MEL-28 melanoma | 1
CCCCN(CCCC)CCc1c(C)cc(C)c(CCN(CCCC)CCCC)c1O | SK-MEL-28 melanoma | -1
CC(C)Cc1ccc(C(C)C(=O)NCc2c[nH]c3ccc(Cl)cc23)cc1 (stereo not given) | SK-MEL-28 melanoma | 1

Input: Is reported growth greater than or equal to 50% here: `NC(=O)c1cccc(-c2ccccc2N2CCCCC2)c1`
Output: 1

Input: Does growth meet or surpass 50% for Fc1ccc(C2CC(c3cccc(Nc4ccncc4)c3)=NN2c2ccc(Cl)cc2)cc1 (stereo not given) ?
Output: 1

Input: Does growth meet or surpass 50% for `CCCC/C(=N\N=C(N)N)c1ccc(F)cc1` ?
Output: 1
